Recorded values, source patent US10494363B2.

# Test system: TNF alpha release from human PBMCs
# assay_name: Inhibition of TNF alpha release from human PBMCs
# Type: cell-based
# condition: PBMC, LPS 1 μg/ml, 18 hours, AlphaLISA
measurement_type: EC50

For each listed entry, give its EC50.
1. Cc1ccc([C@@H](Oc2ccc(C(=O)N[C@H]3CCCN(C(=O)O[C@@H]4COC(=O)C4)C3)nc2)[C@H](C)NC(=O)C(F)(F)F)cc1
2. Cc1ccc([C@@H](Oc2ccc(C(=O)N[C@H]3CCCN(C(=O)N[C@H]4COC(=O)C4)C3)nc2)[C@H](C)NC(=O)C(F)(F)F)cc1

Result:
1. 100 to 300 nM
2. 100 to 300 nM

Lab note: each compound below needs its EC50 filled in.
1. Cc1ncc(C(=O)N[C@@H](C)[C@H](Oc2ccc(C(=O)O[C@H]3CCCN(C(=O)[C@H]4COC(=O)C4)C3)cc2)c2ccc(C3CC3)cc2)s1
2. C[C@H](NC(=O)c1ccsn1)[C@H](Oc1ccc(C(=O)N[C@H]2CCCN(C(=O)[C@H]3COC(=O)C3)C2)nc1)c1ccc(C2CC2)cc1
3. C[C@H](NC(=O)[C@H]1CCCO1)[C@H](Oc1ccc(C(=O)O[C@H]2CCCN(C(=O)[C@H]3COC(=O)C3)C2)cc1)c1ccc(C2CC2)cc1
4. C[C@H](NC(=O)c1ccns1)[C@H](Oc1ccc(C(=O)O[C@H]2CCCN(C(=O)[C@H]3COC(=O)C3)C2)cc1)c1ccc(C2CC2)cc1

Result:
["< 100 nM", "< 100 nM", "< 100 nM", "< 100 nM"]

---

# Test system: TNF alpha release from human PBMCs
# assay_name: Inhibition of TNF alpha release from human PBMCs
# Assay type: cell-based
# condition: PBMC, LPS 1 μg/ml, 18 hours, AlphaLISA
# Method: PBMC were isolated from fresh buffy coats by density centrifugation using lymphoprep (Medinor AB, cat no 1019818) tubes. […] On the assay day, fresh cells or cryopreserved cells after thawing were washed in serum free medium (RPMI1640 with 25 mM HEPES, 1% pen/strep, 200 mM L glutamine and 0.5% human serum albumin) and counted, in order to determine the fraction of living cells (generally >95%). […] The level of TNF-a in the culture supernatant was quantitated by AlphaLISA (Perkin Elmer). […]
Kindly supply the reported EC50 values for the records listed here.

# annotated cases, reported EC50 shown
compound_structure_string: Cc1ccc([C@@H](Oc2ccc(C(=O)O[C@H]3CCCN(C(=O)[C@H]4COC(=O)C4)C3)cc2)[C@H](C)NC(=O)C(F)(F)F)cc1
measurement_type: EC50
measured: < 100 nM
//
compound_structure_string: C[C@H](NC(=O)c1ccno1)[C@H](Oc1ccc(C(=O)N[C@H]2CCCN(C(=O)[C@H]3COC(=O)C3)C2)nc1)c1ccc(C2CC2)cc1
measurement_type: EC50
measured: < 100 nM
//
compound_structure_string: Cc1cnc(C(=O)N[C@@H](C)[C@H](Oc2ccc(C(=O)O[C@H]3CCCN(C(=O)[C@H]4COC(=O)C4)C3)cc2)c2ccc(C3CC3)cc2)s1
measurement_type: EC50
measured: < 100 nM
//
compound_structure_string: C[C@H](NC(=O)c1cn(C)cn1)[C@H](Oc1ccc(C(=O)O[C@H]2CCCN(C(=O)[C@H]3COC(=O)C3)C2)cc1)c1ccc(C2CC2)cc1
measurement_type: EC50
measured: < 100 nM

Can you give me EC50 for all of these, one by one?
1. C[C@H](NC(=O)c1cnsn1)[C@H](Oc1ccc(C(=O)O[C@H]2CCCN(C(=O)[C@H]3COC(=O)C3)C2)cc1)c1ccc(C2CC2)cc1
2. C[C@H](NC(=O)c1cnco1)[C@H](Oc1ccc(C(=O)O[C@H]2CCCN(C(=O)[C@H]3COC(=O)C3)C2)cc1)c1ccc(C2CC2)cc1
3. Cc1ccc([C@H](Oc2ccc(C(=O)N[C@H]3CCCN(C(=O)[C@@H]4COC(=O)C4)C3)nc2)[C@H](C)NC(=O)C(F)(F)F)cc1
4. C[C@H](NC(=O)C1(O)CC1)[C@H](Oc1ccc(C(=O)N[C@H]2CCCN(C(=O)[C@H]3COC(=O)C3)C2)nc1)c1ccc(C2CC2)cc1
5. C[C@H](NC(=O)C(F)(F)F)[C@H](Oc1ccc(C(=O)O[C@H]2CCCN(C(=O)[C@H]3COC(=O)C3)C2)cc1)c1ccc(C2CC2)cc1

Result:
["< 100 nM", "< 100 nM", "< 100 nM", "< 100 nM", "< 100 nM"]

---

# target_under_test: glucocorticoid receptor (GR), recombinant full-length receptor protein (Homo sapiens, UniProt P04150)
# Construct: 4 nM recombinant, full-length receptor protein was incubated with increasing concentrations of GR ligand
# Sequence (P04150 whole entry): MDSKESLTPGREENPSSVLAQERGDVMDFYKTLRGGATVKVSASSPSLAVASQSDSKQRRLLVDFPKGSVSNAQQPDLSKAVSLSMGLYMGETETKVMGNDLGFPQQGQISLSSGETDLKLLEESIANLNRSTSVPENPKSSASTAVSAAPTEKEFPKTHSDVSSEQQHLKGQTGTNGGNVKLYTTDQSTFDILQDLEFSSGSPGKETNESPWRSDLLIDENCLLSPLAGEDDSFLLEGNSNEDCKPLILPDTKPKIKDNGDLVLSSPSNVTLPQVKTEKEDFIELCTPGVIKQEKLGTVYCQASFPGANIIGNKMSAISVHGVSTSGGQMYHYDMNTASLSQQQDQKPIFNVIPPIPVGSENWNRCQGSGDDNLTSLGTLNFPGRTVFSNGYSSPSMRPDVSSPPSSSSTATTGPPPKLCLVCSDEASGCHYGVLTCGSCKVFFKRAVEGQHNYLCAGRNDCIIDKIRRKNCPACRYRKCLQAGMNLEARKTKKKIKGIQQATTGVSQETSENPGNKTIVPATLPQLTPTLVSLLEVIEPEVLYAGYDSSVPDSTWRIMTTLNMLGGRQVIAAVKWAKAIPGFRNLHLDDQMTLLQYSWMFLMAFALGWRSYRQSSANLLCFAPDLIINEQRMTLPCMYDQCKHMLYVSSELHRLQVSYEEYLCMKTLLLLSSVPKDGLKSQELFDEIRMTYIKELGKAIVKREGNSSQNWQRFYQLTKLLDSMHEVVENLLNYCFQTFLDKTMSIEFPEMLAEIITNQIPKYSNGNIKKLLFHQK
# assay_name: Glucocorticoid receptor binding assay (fluorescence polarization kit)
# condition: 4 nM receptor, 2.5 nM Fluormone GS1 tracer, 2h room temperature, read-out: GR binding ABS IC50
# Description: Test compounds were diluted in DMSO over seven orders of magnitude, further diluted in assay buffer and distributed into 384-well plates. The sensitivity limit of this assay was 2-4 nM. Data were processed by sigmoidal curve fitting. Absolute (Abs) IC50 and Emax were determined from the curve fits.
measurement_type: IC50

Here is how some compounds turned out for IC50.
compound: C[C@H](NC(=O)c1ncco1)[C@H](Oc1ccc(C(=O)N[C@H]2CCCN(C(=O)[C@H]3COC(=O)C3)C2)nc1)c1ccc(C2CC2)cc1 [Compound 6]
IC50: < 100 nM
--
compound: C[C@H](NC(=O)c1nccn1C)[C@H](Oc1ccc(C(=O)O[C@H]2CCCN(C(=O)[C@H]3COC(=O)C3)C2)cc1)c1ccc(C2CC2)cc1 [Compound 40]
IC50: < 100 nM
--
compound: Cc1ccc([C@@H](Oc2ccc(C(=O)N[C@@H]3CCN(C(=O)[C@H]4COC(=O)C4)C3)nc2)[C@H](C)NC(=O)C(F)(F)F)cc1 [Compound 65]
IC50: 100 to 300 nM

// input: 5 compounds below; output: IC50 for each
1. Cc1ccc([C@@H](Oc2ccc(C(=O)N[C@H]3CCCN(C(=O)[C@H]4COC(=O)C4)C3)cc2)[C@H](C)NC(=O)C(F)(F)F)cc1 [Compound 69]
2. C[C@H](NC(=O)c1cocn1)[C@H](Oc1ccc(C(=O)N[C@H]2CCCN(C(=O)[C@H]3COC(=O)C3)C2)nc1)c1ccc(C2CC2)cc1 [Compound 19]
3. C[C@H](NC(=O)[C@@H](C)O)[C@H](Oc1ccc(C(=O)N[C@H]2CCCN(C(=O)[C@H]3COC(=O)C3)C2)nc1)c1ccc(C2CC2)cc1 [Compound 11]
4. Cc1ncoc1C(=O)N[C@@H](C)[C@H](Oc1ccc(C(=O)O[C@H]2CCCN(C(=O)[C@H]3COC(=O)C3)C2)cc1)c1ccc(C2CC2)cc1 [Compound 33]
5. Cc1ccc([C@@H](Oc2ccc(C(=O)N[C@H]3CCCN(C(=O)O[C@@H]4CCOC4=O)C3)nc2)[C@H](C)NC(=O)C(F)(F)F)cc1 [Compound 74]

Result:
1: < 100 nM; 2: < 100 nM; 3: > 300 nM; 4: < 100 nM; 5: < 100 nM

---

# Tested on: TNF alpha release from human PBMCs
# assay_name: Inhibition of TNF alpha release from human PBMCs
# Assay type: cell-based
# condition: PBMC, LPS 1 μg/ml, 18 hours, AlphaLISA
measurement_type: EC50

Example cases with answers are listed next.
molecule: Cc1ccc([C@@H](Oc2ccc(C(=O)N[C@H]3CCCN(C(=O)[C@H]4COC(=O)C4)C3)cc2)[C@H](C)NC(=O)C(F)(F)F)cc1
measured: < 100 nM

molecule: C[C@H](NC(=O)c1ccsn1)[C@H](Oc1ccc(C(=O)O[C@H]2CCCN(C(=O)[C@H]3COC(=O)C3)C2)cc1)c1ccc(C2CC2)cc1
measured: < 100 nM

Could you now look at the following molecule, please?
Query: Please give the measured EC50 for this molecule: C[C@@H]1C[C@H]2[C@@H]3CCC4=CC(=O)C=C[C@]4(C)[C@@]3(F)[C@@H](O)C[C@]2(C)[C@@]1(O)C(=O)CO [Dexamethasone, reference compound]
Result: < 100 nM

---

What pEC50 was measured for each of the following?
# Test system: TNF alpha release from human PBMCs
# assay_name: Inhibition of TNF alpha release from human PBMCs
# Format: cell-based
# condition: PBMC, LPS 1 μg/ml, 18 hours, AlphaLISA
pEC50: −log10 of the molar value.

Record excerpt, results attached:
compound_structure_string: Cc1noc(C(=O)N[C@@H](C)[C@H](Oc2ccc(C(=O)O[C@H]3CCCN(C(=O)[C@H]4COC(=O)C4)C3)cc2)c2ccc(C3CC3)cc2)n1
target_under_test: TNF alpha release from human PBMCs
measurement_type: pEC50
measured: > 7.00
--
compound_structure_string: Cc1ccc([C@@H](Oc2ccc(C(=O)N[C@H]3CCCN(C(=O)O[C@H]4COC(=O)C4)C3)nc2)[C@H](C)NC(=O)C(F)(F)F)cc1
target_under_test: TNF alpha release from human PBMCs
measurement_type: pEC50
measured: 6.52 to 7.00
--
compound_structure_string: C[C@H](NC(=O)[C@@H]1CCCO1)[C@H](Oc1ccc(C(=O)O[C@H]2CCCN(C(=O)[C@H]3COC(=O)C3)C2)cc1)c1ccc(C2CC2)cc1
target_under_test: TNF alpha release from human PBMCs
measurement_type: pEC50
measured: > 7.00
--
compound_structure_string: C[C@H](NC(=O)c1cscn1)[C@H](Oc1ccc(C(=O)N[C@H]2CCCN(C(=O)[C@H]3COC(=O)C3)C2)nc1)c1ccc(C2CC2)cc1
target_under_test: TNF alpha release from human PBMCs
measurement_type: pEC50
measured: > 7.00
--
compound_structure_string: CCc1ccc([C@@H](Oc2ccc(C(=O)N[C@H]3CCCN(C(=O)[C@H]4COC(=O)C4)C3)nc2)[C@H](C)NC(=O)C(F)(F)F)cc1
target_under_test: TNF alpha release from human PBMCs
measurement_type: pEC50
measured: > 7.00

Batch of 2 molecules: report pEC50 for each.
1. Cc1cc(C(=O)N[C@@H](C)[C@H](Oc2ccc(C(=O)O[C@H]3CCCN(C(=O)[C@H]4COC(=O)C4)C3)cc2)c2ccc(C3CC3)cc2)no1
2. C[C@H](NC(=O)c1ccnn1C)[C@H](Oc1ccc(C(=O)O[C@H]2CCCN(C(=O)[C@H]3COC(=O)C3)C2)cc1)c1ccc(C2CC2)cc1

Result:
["> 7.00", "6.52 to 7.00"]

State recorded pEC50 for all listed molecules.
1. Cc1ccc([C@H](Oc2ccc(C(=O)N[C@H]3CCCN(C(=O)[C@H]4COC(=O)C4)C3)nc2)[C@H](C)NC(=O)C(F)(F)F)cc1
2. C[C@H](NC(=O)[C@H]1CCCO1)[C@H](Oc1ccc(C(=O)N[C@H]2CCCN(C(=O)[C@H]3COC(=O)C3)C2)nc1)c1ccc(C2CC2)cc1

Result:
1: > 7.00; 2: > 7.00
